Test system: Rat skMC
protocol description: cAMP response in primary rat skeletal muscle cells
measurement conditions: Myotube, read-out: Primary cells, cAMP response EC50 Rat skMC
pEC50: −log10 of the molar value.
readout label: pEC50

• CCCCOc1ccc(CC(C)(C)NC[C@H](O)c2cc(O)cc3[nH]c(=O)sc23)cc1 = 8.47

====

protocol description: Comparative solubility in H2O with pH adjustment by HCl or NaOH
Type: physicochemical
measurement conditions: water, pH 5.4, aqueous buffer; read-out: solubility in H2O, Conc
readout label: solubility (µg/mL)

- CCCCOc1ccc(CC(C)(C)NC[C@H](O)c2cc(O)cc3[nH]c(=O)sc23)cc1.O=C(O)CO [Compound A glycolate salt]: 4470

====

assayed system: β2 AR (Homo sapiens)
Sequence (P07550 whole entry): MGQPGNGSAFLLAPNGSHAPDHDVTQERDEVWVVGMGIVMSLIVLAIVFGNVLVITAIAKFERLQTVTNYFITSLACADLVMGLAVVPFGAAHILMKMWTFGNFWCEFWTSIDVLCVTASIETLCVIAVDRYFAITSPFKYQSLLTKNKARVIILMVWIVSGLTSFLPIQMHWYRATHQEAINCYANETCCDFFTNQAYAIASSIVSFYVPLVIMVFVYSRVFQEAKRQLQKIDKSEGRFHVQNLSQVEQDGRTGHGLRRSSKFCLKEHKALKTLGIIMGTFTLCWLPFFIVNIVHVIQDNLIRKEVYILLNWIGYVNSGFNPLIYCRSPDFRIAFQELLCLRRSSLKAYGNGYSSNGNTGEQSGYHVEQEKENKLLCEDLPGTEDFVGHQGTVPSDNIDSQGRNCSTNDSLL
protocol description: cAMP functional assay in CHO cells stably transfected with human β2 adrenoceptor (Test 1)
measurement conditions: CHO cells EC50 β2 AR, cAMP; CHO cells stably transfected with human β2 adrenoceptor
EC50 overview
readout label: EC50 (nM)

* CC(=O)O.CCCCOc1ccc(CC(C)(C)NC[C@H](O)c2cc(O)cc3[nH]c(=O)sc23)cc1 [Compound A (R) acetate salt] | 2.5
* CCCCOc1ccc(CC(C)(C)NC[C@H](O)c2cc(O)cc3[nH]c(=O)sc23)cc1 | 5.6

====

protocol description: Comparative solubility in H2O with pH adjustment by HCl or NaOH
Type: physicochemical
measurement conditions: water, pH 5.1, aqueous buffer; read-out: solubility in H2O, Conc
readout label: solubility (mg/mL)

* CCCCOc1ccc(CC(C)(C)NC[C@H](O)c2cc(O)cc3[nH]c(=O)sc23)cc1.O=C(O)CO [Compound A glycolate salt] | 13.1

====

protocol description: Comparative solubility in H2O with pH adjustment by HCl or NaOH
Format: physicochemical
measurement conditions: water, aqueous buffer; pH 6.0; read-out: solubility in H2O, Conc
readout label: solubility (µg/mL)

* CC(=O)O.CCCCOc1ccc(CC(C)(C)NC[C@H](O)c2cc(O)cc3[nH]c(=O)sc23)cc1 [Compound A (R) acetate salt] | 1110
